Target: T1, CRBN, Q96SW2;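 further: pooled lentiviral library of zinc finger degron-EGFP fusions in mCherry-positive Jurkat cells, FACS-sorted after compound exposure, with degron abundance counted by next-generation sequencing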
T1 chain: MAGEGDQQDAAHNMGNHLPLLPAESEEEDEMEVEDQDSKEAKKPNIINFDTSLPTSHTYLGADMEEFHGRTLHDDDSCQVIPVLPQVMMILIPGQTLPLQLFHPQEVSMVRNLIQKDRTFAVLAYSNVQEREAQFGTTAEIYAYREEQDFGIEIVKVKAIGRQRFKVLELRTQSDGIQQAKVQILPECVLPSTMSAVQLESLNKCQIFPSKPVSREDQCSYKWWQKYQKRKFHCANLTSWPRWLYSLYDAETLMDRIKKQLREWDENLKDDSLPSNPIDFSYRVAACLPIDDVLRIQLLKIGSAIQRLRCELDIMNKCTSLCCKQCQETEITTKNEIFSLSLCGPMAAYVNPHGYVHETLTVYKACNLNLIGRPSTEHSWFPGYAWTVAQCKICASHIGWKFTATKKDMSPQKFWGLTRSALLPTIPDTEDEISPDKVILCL
Test: log2 fold change of degron read counts, EGFP-low vs EGFP+ sorted cells (limma voom), compound-induced degradation; higher = more compound-induced degradation of the degron-EGFP fusion; degrons are variants of IKZF1/3 zinc finger 2; compound dose not given here
Settings: Jurkat; 18 h; compound: compound 19 (5-tert-butyl-thalidomide)
In all, about 8,300 sequences were measured (“log2 fold change of degron read counts, EGFP-low vs EGFP+ sorted cells (limma voom), compound-induced degradation”: median about -1.1, highest 2% from about 3.2 on). This excerpt belongs to a sample that is enriched for the highest values.
parameter: log2 fold change of degron read counts

itemsequence="FGCPICGATFTQKGNLLRHIKL [46F_47G_49P_50I_52G_53A_54T_55F_67L_, Q9UKT9]" quantitativeresult=3.46
itemsequence="FTCNVCGAGFTQKGNLLRHIKL [46F_47T_49N_50V_52G_53A_54G_55F_67L_, Q9UKT9]" quantitativeresult=-0.827
itemsequence="FHCEVCGAKFTQKGNLLRHIKL [46F_47H_49E_50V_52G_53A_54K_55F_67L_, Q9UKT9]" quantitativeresult=2.92
itemsequence="FDCPICGRVFTQKGNLLRHIKL [46F_47D_49P_50I_52G_53R_54V_55F_67L_, Q9UKT9]" quantitativeresult=-0.729
itemsequence="FLCPVCGAHFTQKGNLLRHIKL [46F_47L_49P_50V_52G_53A_54H_55F_67L_, Q9UKT9]" quantitativeresult=-0.298
itemsequence="FVCPQCGAEFTQKGNLLRHIKL [46F_47V_49P_50Q_52G_53A_54E_55F_67L_, Q9UKT9]" quantitativeresult=-2.41
itemsequence="FRCPICGATFTQKGNLLRHIKL [46F_47R_49P_50I_52G_53A_54T_55F_67L_, Q9UKT9]" quantitativeresult=-0.752
itemsequence="FKCPICGATFTQKGNLLRHIKL [46F_47K_49P_50I_52G_53A_54T_55F_67L_, Q9UKT9]" quantitativeresult=-1.47
itemsequence="FLCSVCGHQFTQKGNLLRHIKL [46F_47L_49S_50V_52G_53H_54Q_55F_67L_, Q9UKT9]" quantitativeresult=-2.83
itemsequence="FQCEQCGACFTQKGNLLRHIKL [46F_47Q_49E_50Q_52G_53A_54C_55F_67L_, Q9UKT9]" quantitativeresult=-1.81
itemsequence="FCCEVCGAKFTQKGNLLRHIKL [46F_47C_49E_50V_52G_53A_54K_55F_67L_, Q9UKT9]" quantitativeresult=3.23
itemsequence="FKCEQCGAVFTQKGNLLRHIKL [46F_47K_49E_50Q_52G_53A_54V_55F_67L_, Q9UKT9]" quantitativeresult=-3.73
itemsequence="FHCNICGAHFTQKGNLLRHIKL [46F_47H_49N_50I_52G_53A_54H_55F_67L_, Q9UKT9]" quantitativeresult=0.23
itemsequence="FICPICGATFTQKGNLLRHIKL [46F_47I_49P_50I_52G_53A_54T_55F_67L_, Q9UKT9]" quantitativeresult=-1.06
